Just for reference, patent US10053443B2 is where these values come from.

tested on: Tumor Necrosis Factor Alpha (TNF-alpha); experiment: Inhibition of TNF-alpha generation in LPS-treated Raw 264.7 cells (ELISA); format: cell-based; conditions: Mus musculus, RAW264.7; Raw 264.7, LPS treated; read-out: Grades of IC50 on TNF-alpha generation
pIC50: −log10 of the molar value.
PROPERTY MEASURED: pIC50

Enter measured pIC50, system Tumor Necrosis Factor Alpha (TNF-alpha), for the molecule shown: `COc1cc(CCCO)cc2cc(-c3ccc(C)cc3)oc12` 5.52 to 6.00

Enter measured pIC50, system Tumor Necrosis Factor Alpha (TNF-alpha), for the molecule shown: `COc1ccc(-c2cc3cc(CCCO)cc(OC)c3o2)cc1OC` 5.00 to 5.30

Enter measured pIC50, system Tumor Necrosis Factor Alpha (TNF-alpha), for the molecule shown: `COc1cc(-c2cc3cc(CCCO)cc(OC)c3o2)ccc1O` 5.30 to 5.52

Enter measured pIC50, system Tumor Necrosis Factor Alpha (TNF-alpha), for the molecule shown: `COc1cc(CCCO)cc2cc(-c3ccc(O)c(O)c3)oc12` 5.52 to 6.00

* * *

tested on: Nitrogen Oxide (NO) generation; test: Inhibition of nitrogen oxide (NO) generation in LPS-treated Raw 264.7 cells (Griess); type: cell-based, mouse; conditions: Raw 264.7, LPS 500 ng/ml, 24 hours
PROPERTY MEASURED: Grades of NO generation inhibition rate (%)

SMILES DATA | SYSTEM NAME | VALUE MEASURED
COc1cc(CCCO)cc(CCc2cccc(C)c2)c1O | Nitrogen Oxide (NO) generation | A (A: 35<A≤100)
COc1ccc(-c2cc3cc(CCCO)cc(OC)c3o2)c(C)c1 | Nitrogen Oxide (NO) generation | A (A: 35<A≤100)
COc1ccc(-c2cc3cc(CCCO)cc(O)c3o2)cc1OC | Nitrogen Oxide (NO) generation | D (D: 5<D≤15)
COc1cc(CCCO)cc(CCc2ccc(C)cc2)c1O | Nitrogen Oxide (NO) generation | C (C: 15<C≤25)

Provide one value: measured Grades of NO generation inhibition rate (%) of `COc1ccc(-c2cc3cc(CCCO)cc(OC)c3o2)cc1` D (D: 5<D≤15)

Provide one value: measured Grades of NO generation inhibition rate (%) of `COc1cc(CCCO)cc2cc(-c3ccc(N(C)C)cc3)oc12` C (C: 15<C≤25)

Provide one value: measured Grades of NO generation inhibition rate (%) of `COc1cc(CCCO)cc2cc(-c3ccc(O)c(O)c3)oc12` A (A: 35<A≤100)

Provide one value: measured Grades of NO generation inhibition rate (%) of `COc1cc(CCCO)cc2cc(-c3cccc(C)c3)oc12` A (A: 35<A≤100)

Provide one value: measured Grades of NO generation inhibition rate (%) of `COc1cc(CCCO)cc2cc(-c3cccc(F)c3)oc12` C (C: 15<C≤25)

* * *

test system: Nitrogen Oxide (NO) generation; experiment: Inhibition of nitrogen oxide (NO) generation in LPS-treated Raw 264.7 cells (Griess); type: cell-based, mouse; settings: Raw 264.7, LPS 500 ng/ml, 24 hours
PROPERTY MEASURED: Grades of NO generation inhibition rate (%)

Answered cases to consult:
SMILES DATA | SYSTEM NAME | VALUE MEASURED
COc1ccc(-c2cc3cc(CCO)cc(OC)c3o2)cc1OC | Nitrogen Oxide (NO) generation | A (A: 35<A≤100)
COc1ccc(CCc2cc(CCCO)cc(OC)c2O)cc1OC | Nitrogen Oxide (NO) generation | C (C: 15<C≤25)
COc1cccc(CCc2cc(CCCO)cc(OC)c2O)c1 | Nitrogen Oxide (NO) generation | C (C: 15<C≤25)
COc1cc(-c2cc3cc(CCCO)cc(OC)c3o2)cc(OC)c1O | Nitrogen Oxide (NO) generation | A (A: 35<A≤100)
COc1cc(-c2cc3cc(CCCO)cc(OC)c3o2)ccc1O | Nitrogen Oxide (NO) generation | A (A: 35<A≤100)

Kindly review the next compound as well.
Provide one value: measured Grades of NO generation inhibition rate (%) of `COc1ccc(-c2cc3cc(CCCO)cc(OC)c3o2)cc1O` C (C: 15<C≤25)
